target: Dpo4•DNA binary complex (Saccharolobus solfataricus, UniProt Q97W02)
test summary: Substrate specificity assay
Format: biochemical, Sulfolobus solfataricus
condition details: DNA substrate 18/26-mer-dG^C8-N-ABA vs control 18/26-mer
metric name: Efficiency Ratio (kp/Kd, dNTP)control/(kp/Kd, dNTP)damaged
Kindly provide the number alone.

Reference set, count: 3
Nc1nc2c(ncn2[C@H]2C[C@H](O)[C@@H](COP(=O)(O)OP(=O)(O)OP(=O)(O)O)O2)c(=O)[nH]1 [dGTP] = 1.6
Cc1cn([C@H]2C[C@H](O)[C@@H](COP(=O)(O)OP(=O)(O)OP(=O)(O)O)O2)c(=O)[nH]c1=O [dTTP] = 5.4
Nc1ccn([C@H]2C[C@H](O)[C@@H](COP(=O)(O)OP(=O)(O)OP(=O)(O)O)O2)c(=O)n1 [dCTP] = 1.25

Form: item Nc1ncnc2c1ncn2[C@H]1C[C@H](O)[C@@H](COP(=O)(O)OP(=O)(O)OP(=O)(O)O)O1 [dATP] ; test system Dpo4•DNA binary complex (Saccharolobus solfataricus, UniProt Q97W02); Efficiency Ratio (kp/Kd, dNTP)control/(kp/Kd, dNTP)damaged: 0.85

----------
target: Dpo4•DNA binary complex (Saccharolobus solfataricus)
test summary: Substrate specificity assay
Assay type: biochemical, Sulfolobus solfataricus
condition details: read-out: Kd,dNTP; DNA substrate 21/26-mer-dG^C8-N-ABA (pause site, extension) 30 nM, Dpo4 120 nM, 37 °C
Here the recorded Kd is given for each entry.
Please reply with the bare figure in µM and do not write the unit itself.

Reference set, count: 3
Nc1nc2c(ncn2[C@H]2C[C@H](O)[C@@H](COP(=O)(O)OP(=O)(O)OP(=O)(O)O)O2)c(=O)[nH]1 = 400
Cc1cn([C@H]2C[C@H](O)[C@@H](COP(=O)(O)OP(=O)(O)OP(=O)(O)O)O2)c(=O)[nH]c1=O = 420
Nc1ccn([C@H]2C[C@H](O)[C@@H](COP(=O)(O)OP(=O)(O)OP(=O)(O)O)O2)c(=O)n1 = 160

Now let's try a different one.
Field Kd (entry Nc1ncnc2c1ncn2[C@H]1C[C@H](O)[C@@H](COP(=O)(O)OP(=O)(O)OP(=O)(O)O)O1 ) reads 450

----------
target: Dpo4•DNA binary complex (Saccharolobus solfataricus, UniProt Q97W02)
Sequence (Q97W02 1-352): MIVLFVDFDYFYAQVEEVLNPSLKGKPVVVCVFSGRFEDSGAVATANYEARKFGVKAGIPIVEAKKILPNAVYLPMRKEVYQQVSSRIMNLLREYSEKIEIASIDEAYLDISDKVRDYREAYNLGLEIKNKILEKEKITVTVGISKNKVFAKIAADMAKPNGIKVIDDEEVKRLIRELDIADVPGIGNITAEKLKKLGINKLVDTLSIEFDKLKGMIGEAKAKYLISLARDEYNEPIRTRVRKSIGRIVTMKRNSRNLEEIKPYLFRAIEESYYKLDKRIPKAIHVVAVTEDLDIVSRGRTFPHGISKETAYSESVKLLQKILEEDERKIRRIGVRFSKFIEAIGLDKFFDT
test summary: Substrate specificity assay
Assay type: biochemical, Sulfolobus solfataricus
condition details: DNA substrate 21/26-mer-dG^C8-N-ABA; efficiency/sum of efficiencies × 100
Here the recorded Probability is given for each entry.
Kindly provide the number alone.

Form: item Nc1ncnc2c1ncn2[C@H]1C[C@H](O)[C@@H](COP(=O)(O)OP(=O)(O)OP(=O)(O)O)O1 ; test system Dpo4•DNA binary complex (Saccharolobus solfataricus, UniProt Q97W02); Probability: 3.83

Form: item Nc1ccn([C@H]2C[C@H](O)[C@@H](COP(=O)(O)OP(=O)(O)OP(=O)(O)O)O2)c(=O)n1 ; test system Dpo4•DNA binary complex (Saccharolobus solfataricus, UniProt Q97W02); Probability: 10.34

Form: item Nc1nc2c(ncn2[C@H]2C[C@H](O)[C@@H](COP(=O)(O)OP(=O)(O)OP(=O)(O)O)O2)c(=O)[nH]1 ; test system Dpo4•DNA binary complex (Saccharolobus solfataricus, UniProt Q97W02); Probability: 84.26

Form: item Cc1cn([C@H]2C[C@H](O)[C@@H](COP(=O)(O)OP(=O)(O)OP(=O)(O)O)O2)c(=O)[nH]c1=O ; test system Dpo4•DNA binary complex (Saccharolobus solfataricus, UniProt Q97W02); Probability: 1.57

// provenance: paper PMC4133103
